- Test system: NOMO1
- assay-remarks: cell viability relative to DMSO control; higher = less cytotoxic
- assay-conditions: RPMI 5 mM glucose + 10% FBS; 48 h; 0.19 µM
Listed here: items and their measured cell viability.

[
  {
    "compound": "COc1cccc2c1C(=O)c1c(O)c3c(c(O)c1C2=O)C[C@@](O)(C(=O)CO)C[C@@H]3O[C@H]1C[C@H](N)[C@H](O[C@H]2CCCCO2)[C@H](C)O1",
    "cell viability, %": 128
  },
  {
    "compound": "COc1cc(Nc2c(C#N)cnc3cc(OCCCN4CCN(C)CC4)c(OC)cc23)c(Cl)cc1Cl",
    "cell viability, %": 118
  },
  {
    "compound": "Cc1nc2cc(C(=O)N3CCC4(CC3)CC(=O)c3c(cnn3C(C)C)C4)ccc2[nH]1",
    "cell viability, %": 124
  },
  {
    "compound": "O=C1CCC[C@@H]2[C@H]3CCCN4CCC[C@@H](CN12)[C@@H]34",
    "cell viability, %": 90.9
  },
  {
    "compound": "O=C/1NC(=O)C(=C1C2=CN=C3C=CC=C[N]23)/C4=C[N]5CCN(CC6=C5C4=CC=C6)C(=O)N7CCOCC7",
    "cell viability, %": 146
  },
  {
    "compound": "CC[C@]12CC[C@H]3[C@@H](CCC/4=C/C(=O)CC[C@H]34)[C@@H]1CC[C@@]2(O)C#C",
    "cell viability, %": 75.1
  },
  {
    "compound": "CC1=C(/C=C/C(C)=C/C=C/C(C)=C\\C(=O)O)C(C)(C)CCC1",
    "cell viability, %": 97.2
  },
  {
    "compound": "CN(C)C1=CC(=CC=C1)C\\2=C\\3C(=O)N(NC3=C/C(=O)N2C)C4=CC=CC=C4Cl",
    "cell viability, %": 103
  },
  {
    "compound": "N#Cc1ccc(Oc2ccc3c(c2)COB3O)cc1",
    "cell viability, %": 137
  },
  {
    "compound": "O=C(Nc1nnc(-c2ccco2)o1)c1cc(-c2ccccc2)nc2ccccc12",
    "cell viability, %": 101
  },
  {
    "compound": "N\\C1=N\\C2=C(N=C[N]2COCCO)C(=O)N1",
    "cell viability, %": 95.4
  },
  {
    "compound": "CC(C)=CCC/C(C)=C/CC/C(C)=C/CSc1ccccc1C(=O)O",
    "cell viability, %": 99.1
  },
  {
    "compound": "C[C@H](CCC(=O)O)[C@H]1CCC2C3C[C@H](O)[C@@H]4C[C@H](O)CC[C@]4(C)C3CC[C@@]21C (some centres not stated)",
    "cell viability, %": 116
  },
  {
    "compound": "C[C@H]1C[C@H]2[C@@H]3CC[C@](O)(C(=O)CO)[C@@]3(C)C[C@H](O)[C@@H]2[C@@]\\4(C)/C=C\\C(=O)\\C=C14",
    "cell viability, %": 97.1
  },
  {
    "compound": "CC(NC(C)(C)C)C(=O)c1cccc(Cl)c1 (configuration not stated)",
    "cell viability, %": 127
  },
  {
    "compound": "C[N]1C=C(C2=CC=CC=C12)\\C3=C(\\C(=O)NC3=O)C4=C[N](C5CCN(CC5)CC6=NC=CC=C6)C7=C4C=CC=C7",
    "cell viability, %": 110
  },
  {
    "compound": "Cc1cc(OCCC[S+](C)(=O)[O-])cc(C)c1-c1cccc(COc2ccc3c(c2)OC[C@H]3CC(=O)O)c1",
    "cell viability, %": 99.2
  }
]

----------
- Tested on: NOMO1
- assay-remarks: cell viability relative to DMSO control; higher = less cytotoxic
- assay-conditions: HPLM + 10% dialyzed FBS; 48 h; 5.12 µM

[
  {
    "compound": "CCc1cc2c(cc1N1CCC(N3CCOCC3)CC1)C(C)(C)c1[nH]c3cc(C#N)ccc3c1C2=O",
    "cell viability / %": 105
  },
  {
    "compound": "O=C(O)CCCCC(CCSCc1ccccc1)SCc1ccccc1 (stereo not given)",
    "cell viability / %": 110
  },
  {
    "compound": "C[C@H](CCC(=O)O)[C@H]1CCC2C3C[C@H](O)[C@@H]4C[C@H](O)CC[C@]4(C)C3CC[C@@]21C (stereo not given in full)",
    "cell viability / %": 114
  },
  {
    "compound": "C[N]1C=C(C2=CC=CC=C12)\\C3=C(\\C(=O)NC3=O)C4=C[N](C5CCN(CC5)CC6=NC=CC=C6)C7=C4C=CC=C7",
    "cell viability / %": 129
  },
  {
    "compound": "C=C1C(=O)OC(CCCCCCCC)C1C(=O)O (stereo not given)",
    "cell viability / %": 104
  }
]

----------
Listed here: items and their measured cell viability.
- System: NOMO1
- assay-remarks: cell viability relative to DMSO control; higher = less cytotoxic
- assay-conditions: HPLM + 10% dialyzed FBS; 48 h; 0.00234 µM

[
  {
    "compound": "O=C(Nc1c[nH]nc1-c1nc2cc(CN3CCOCC3)ccc2[nH]1)NC1CC1",
    "cell viability [%]": 111
  },
  {
    "compound": "O=C(O)CCCCC(CCSCc1ccccc1)SCc1ccccc1 (centres undefined)",
    "cell viability [%]": 104
  },
  {
    "compound": "COc1ccc(C(=O)c2c(C)n(CCN3CCOCC3)c3ccccc23)cc1",
    "cell viability [%]": 99.9
  },
  {
    "compound": "CC\\12CCC(=O)\\C=C1CCC3C2CCC4(C)C3CCC4(O)C#C (centres undefined)",
    "cell viability [%]": 101
  },
  {
    "compound": "CC(=O)N[C@@H]1[C@@H](NC(N)=N)\\C=C(/O[C@H]1[C@H](O)[C@H](O)CO)C(O)=O",
    "cell viability [%]": 105
  },
  {
    "compound": "OC[C@H]1O[C@H](C[C@@H]1O)N2\\C=C(F)/C(=O)NC2=O",
    "cell viability [%]": 120
  },
  {
    "compound": "CN1CCN(c2c(F)cc3c(=O)c(C(=O)O)cn(CCF)c3c2F)CC1",
    "cell viability [%]": 107
  },
  {
    "compound": "CC[S+](=O)([O-])Nc1ccc2c(c1)/C(=C(/Nc1ccc(CN3CCCCC3)cc1)c1ccccc1)C(=O)N2",
    "cell viability [%]": 114
  },
  {
    "compound": "Cc1ccc(C(=O)Nc2cccc(C(F)(F)F)c2)cc1-c1ccc2nc(NCCN3CCOCC3)ncc2c1",
    "cell viability [%]": 122
  }
]

----------
- Test system: P12-Ichikawa
- assay-remarks: cell viability relative to DMSO control; higher = less cytotoxic
- assay-conditions: RPMI 5 mM glucose + 10% FBS; 48 h; 15.4 µM

[
  {
    "compound": "CC[S+](=O)([O-])Nc1ccc2c(c1)/C(=C(/Nc1ccc(CN3CCCCC3)cc1)c1ccccc1)C(=O)N2",
    "assay-target": "P12-Ichikawa",
    "cell viability / %": 51.4
  },
  {
    "compound": "COc1cc([C@@H]2c3cc4c(cc3[C@H](O)[C@H]3COC(=O)[C@@H]23)OCO4)cc(OC)c1OC",
    "assay-target": "P12-Ichikawa",
    "cell viability / %": 5.8
  },
  {
    "compound": "COc1cc2ncn(-c3cc(OCc4ccccc4[S+](C)(=O)[O-])c(C#N)s3)c2cc1OC",
    "assay-target": "P12-Ichikawa",
    "cell viability / %": 91.3
  },
  {
    "compound": "CC(C)=CCC/C(C)=C/CC/C(C)=C/CSc1ccccc1C(=O)O",
    "assay-target": "P12-Ichikawa",
    "cell viability / %": 47.9
  },
  {
    "compound": "O=C(Nc1nnc(-c2ccco2)o1)c1cc(-c2ccccc2)nc2ccccc12",
    "assay-target": "P12-Ichikawa",
    "cell viability / %": 97.8
  },
  {
    "compound": "Cc1cc(OCCC[S+](C)(=O)[O-])cc(C)c1-c1cccc(COc2ccc3c(c2)OC[C@H]3CC(=O)O)c1",
    "assay-target": "P12-Ichikawa",
    "cell viability / %": 86.8
  },
  {
    "compound": "COc1ccc(C(CN(C)C)C2(O)CCCCC2)cc1 (stereo not drawn)",
    "assay-target": "P12-Ichikawa",
    "cell viability / %": 85.7
  },
  {
    "compound": "O=C(CS(=O)Cc1ccco1)NC/C=C\\COc1cc(CN2CCCCC2)ccn1 (stereo not drawn)",
    "assay-target": "P12-Ichikawa",
    "cell viability / %": 94.4
  },
  {
    "compound": "N\\C1=N\\C2=C(N=C[N]2COCCO)C(=O)N1",
    "assay-target": "P12-Ichikawa",
    "cell viability / %": 92.3
  },
  {
    "compound": "O=C(CCCCCCC(=O)Nc1ccc([C@H]2O[C@@H](CSc3nc(-c4ccccc4)c(-c4ccccc4)o3)C[C@@H](c3ccc(CO)cc3)O2)cc1)NO",
    "assay-target": "P12-Ichikawa",
    "cell viability / %": 4.95
  },
  {
    "compound": "O=C(CCc1ccc(O)cc1)c1c(O)cc(O)cc1O",
    "assay-target": "P12-Ichikawa",
    "cell viability / %": 107
  },
  {
    "compound": "C[C@@H]1CCN(C(=O)CC#N)C[C@@H]1N(C)c1ncnc2[nH]ccc12",
    "assay-target": "P12-Ichikawa",
    "cell viability / %": 82.1
  },
  {
    "compound": "COc1ccc(C(=O)c2c(C)n(CCN3CCOCC3)c3ccccc23)cc1",
    "assay-target": "P12-Ichikawa",
    "cell viability / %": 110
  },
  {
    "compound": "[O-]C(=O)C/1=N/C(=O)NC(=O)N1",
    "assay-target": "P12-Ichikawa",
    "cell viability / %": 82.1
  },
  {
    "compound": "N#C/C(=C\\c1ccc(O)c(O)c1)C(=O)NCc1ccccc1",
    "assay-target": "P12-Ichikawa",
    "cell viability / %": 68.2
  },
  {
    "compound": "CC1(CN2CCC(n3c(=O)[nH]c4ccccc43)CC2)OCc2ccccc2-n2cccc21 (stereo not drawn)",
    "assay-target": "P12-Ichikawa",
    "cell viability / %": 96.8
  },
  {
    "compound": "CCOc1cc2ncc(C#N)c(Nc3ccc(OCc4ccccn4)c(Cl)c3)c2cc1NC(=O)/C=C/CN(C)C",
    "assay-target": "P12-Ichikawa",
    "cell viability / %": 5.28
  },
  {
    "compound": "CCn1c(-c2nonc2N)nc2c(C#CC(C)(C)O)ncc(OC[C@H]3CCCNC3)c21",
    "assay-target": "P12-Ichikawa",
    "cell viability / %": 45.9
  }
]
